Entries and their measured melting point follow.

Query string: Value lookup for melting point; key = CCOC(=O)c1ccc(Oc2ccccc2C(=O)O)cc1
Result string: 152 to 153 °C

Further cases:
Query string: Value lookup for melting point; key = CCC(CC)Nc1cc(C)nc(Oc2c(C)cc(C)cc2C)c1C(N)=O
Result string: 85 to 88 °C

Query string: Value lookup for melting point; key = CC(C)(C)c1cc(C(=NNc2ccccc2)c2ccccc2)cc(C(C)(C)C)c1O
Result string: 144 to 145 °C

Query string: Value lookup for melting point; key = CCc1c[nH]c(=O)c(N)c1Sc1cc(C)cc(C)c1
Result string: 208 to 209 °C

Query string: Value lookup for melting point; key = O=C(O)CN1C(=O)C(=Cc2ccc([N+](=O)[O-])o2)SC1=S
Result string: 238 to 242 °C

Query string: Value lookup for melting point; key = O=C1CN(c2cccc(CF)c2)NC(=O)N1
Result string: 169 to 170 °C

---

Entries and their measured melting point follow.

Example compounds with recorded melting point:
Query string: Value lookup for melting point; key = O=C(Nc1nc(Cl)cc(Cl)n1)NS(=O)(=O)Nc1ccccc1C(=O)C1CC1
Result string: 114 to 116 °C

Query string: Value lookup for melting point; key = COc1ccc(C(=O)c2cccnc2)cc1[N+](=O)[O-]
Result string: 86 to 88 °C

Query string: Value lookup for melting point; key = Cc1cc2n[nH]c(=O)n2nc1-c1cccc([N+](=O)[O-])c1
Result string: > 300 °C

Query string: Value lookup for melting point; key = CN1C(=O)COc2c(C(=O)NC3CN4CCC3CC4)cc(O)cc21 (centres undefined)
Result string: 250 to 251 °C

Query string: Value lookup for melting point; key = COC(=O)c1ccc(C=C(C)[N+](=O)[O-])c(Cl)c1
Result string: 74 to 77 °C

Query string: Value lookup for melting point; key = Cn1c(=O)nc(-c2ccccc2F)c2ccsc21
Result string: 222 to 223 °C

Query string: Value lookup for melting point; key = Cc1ccc(Nc2nc(-c3c(-c4ccccc4)noc3C)cs2)nc1
Result string: 267 to 269 °C

Query string: Value lookup for melting point; key = O=[N+]([O-])c1cccc(Oc2ccc(Oc3cccc([N+](=O)[O-])c3)cc2)c1
Result string: 158 to 160 °C

Attention now shifts to the item below.
Query string: Value lookup for melting point; key = NC(=O)CC[C@H](NC(=O)CCc1ccc(OCc2ccccc2)cc1OCc1ccccc1)C(=O)N1CCN(c2ccccc2)CC1
Result string: 118 to 120 °C

---

MEASURED_ENDPOINT: melting point

Example compounds with recorded melting point:
Query string: Value lookup for melting point; key = CC(=O)Oc1cccc2c1C(=O)c1c(OC(C)=O)cc(C(=O)NOCc3ccccc3)cc1C2=O
Result string: 192 to 194 °C

Query string: Value lookup for melting point; key = Cc1cc(Cl)cnc1N
Result string: 63 to 64 °C

Query string: Value lookup for melting point; key = CNC(=O)Cc1cccc(NC(=O)NC)c1
Result string: 175 to 177 °C

Query string: Value lookup for melting point; key = CCCCCCCNC(=O)Oc1ccc2ncccc2c1
Result string: 78 °C

Query string: Value lookup for melting point; key = O=c1n(O)ccn1Cc1ccc(OCc2ccccc2)cc1
Result string: > 175 °C

Further cases:
Query string: Value lookup for melting point; key = COC(=O)c1ccc(OCC(O)COc2ccc(Cl)cc2)cc1 (stereo unspecified)
Result string: 88 to 90 °C

Query string: Value lookup for melting point; key = CC(=O)Nc1cc(Oc2ccc3c(C(=O)Nc4ccc(CN5CCN(C(C)C)CC5)c(C(F)(F)F)c4)cccc3c2)ncn1
Result string: 210 to 213 °C

Query string: Value lookup for melting point; key = CCCCc1nc(Cl)c(CO)n1Cc1ccc2oc(-c3ccccc3C#N)c(OC)c2c1
Result string: 164 to 168 °C

Query string: Value lookup for melting point; key = CSc1nc(Cl)c2sccc2n1
Result string: 115 to 118 °C

Query string: Value lookup for melting point; key = CCN(CC)S(=O)(=O)c1ccc2c(c1)-c1c(nc(C)[nH]c1=O)CC2
Result string: 249 to 251 °C
